Just for reference, the supplement of paper PMC10883282 is where these values come from.

A collection of molecules and their measured relative viability
# Test system: MES-SA
# assay_comment: relative viability vs DMSO control (72 h) (fraction); higher = more viable cells
# recorded_conditions: 0.00017 µM
// no unit, no text: just the number

Below, each entry is followed by its recorded relative viability result.
{"substance_smiles": "CO[C@H]1C[C@@H]2CC[C@@H](C)[C@@](O)(O2)C(=O)C(=O)N2CCCC[C@H]2C(=O)O[C@H]([C@H](C)C[C@@H]2CC[C@@H](OC(=O)C(C)(CO)CO)[C@H](OC)C2)CC(=O)[C@H](C)/C=C(\\C)[C@@H](O)[C@@H](OC)C(=O)[C@H](C)C[C@H](C)/C=C/C=C/C=C/1C", "measured_on": "MES-SA", "relative viability": 0.814}
{"substance_smiles": "COc1cc(N2CCC(N3CCN(C)CC3)CC2)ccc1Nc1ncc(Cl)c(Nc2ccccc2P(C)(C)=O)n1", "measured_on": "MES-SA", "relative viability": 0.864}

Lookup result for "C[C@@H]1CN(C(=O)c2ccc(NC(=O)c3cc(O[C@H](C)c4c(Cl)ccc(F)c4Cl)c(N)nn3)cc2)C[C@H](C)N1" ; measured relative viability: 0.921

###

# System: SW1353
# assay_comment: relative viability vs DMSO control (72 h) (fraction); higher = more viable cells
# recorded_conditions: 10 µM
value_kind: relative viability
// no unit, no text: just the number

Below, each entry is followed by its recorded relative viability result.
{"molecule": "CCS(=O)(=O)N1CC(CC#N)(n2cc(-c3ncnc4[nH]ccc34)cn2)C1", "relative viability": 0.786}
{"molecule": "CO[C@H]1C[C@@H]2CC[C@@H](C)[C@@](O)(O2)C(=O)C(=O)N2CCCC[C@H]2C(=O)O[C@H]([C@H](C)C[C@@H]2CC[C@@H](OC(=O)C(C)(CO)CO)[C@H](OC)C2)CC(=O)[C@H](C)/C=C(\\C)[C@@H](O)[C@@H](OC)C(=O)[C@H](C)C[C@H](C)/C=C/C=C/C=C/1C", "relative viability": 0.149}
{"molecule": "O=C(c1ccc(F)c(F)c1Nc1ccc(I)cc1F)N1CC(O)([C@@H]2CCCCN2)C1", "relative viability": 0.0141}

Lookup result for "C#Cc1cccc(Nc2ncnc3cc4c(cc23)OCCOCCOCCO4)c1" ; measured relative viability: 0.847

Lookup result for O=S(=O)(c1cccc2c(O)nccc12)N1CCCNCC1 [Hydroxyfasudil] ; measured relative viability: 0.775

###

# Tested on: SW684
# assay_comment: relative viability vs DMSO control (72 h) (fraction); higher = more viable cells
# recorded_conditions: 0.01372 µM
value_kind: relative viability

Below, each entry is followed by its recorded relative viability result.
{"molecule": "O=C(c1ccc(F)c(F)c1Nc1ccc(I)cc1F)N1CC(O)([C@@H]2CCCCN2)C1 [Cobimetinib]", "relative viability": 1.13}
{"molecule": "C=CC(=O)N1CCC(CNc2ncnc(N)c2-c2ccc(Oc3ccccc3)cc2)CC1 [Evobrutinib]", "relative viability": 1.2}
{"molecule": "Cn1cnc2c(F)c(Nc3ccc(Br)cc3Cl)c(C(=O)NOCCO)cc21 [Selumetinib]", "relative viability": 1.03}
{"molecule": "CCOc1cc2ncc(C#N)c(Nc3ccc(OCc4ccccn4)c(Cl)c3)c2cc1NC(=O)/C=C/CN(C)C [Neratinib]", "relative viability": 1.16}
{"molecule": "CN(C)C/C=C/C(=O)Nc1cc2c(Nc3ccc(F)c(Cl)c3)ncnc2cc1O[C@H]1CCOC1 [Afatinib]", "relative viability": 1.14}
{"molecule": "O=S(=O)(c1cccc2c(O)nccc12)N1CCCNCC1 [Hydroxyfasudil]", "relative viability": 1.16}

Lookup result for CCS(=O)(=O)N1CC(CC#N)(n2cc(-c3ncnc4[nH]ccc34)cn2)C1 [Baricitinib] ; measured relative viability: 1.13

Lookup result for CO[C@H]1C[C@@H]2CC[C@@H](C)[C@@](O)(O2)C(=O)C(=O)N2CCCC[C@H]2C(=O)O[C@H]([C@H](C)C[C@@H]2CC[C@@H](OC(=O)C(C)(CO)CO)[C@H](OC)C2)CC(=O)[C@H](C)/C=C(\C)[C@@H](O)[C@@H](OC)C(=O)[C@H](C)C[C@H](C)/C=C/C=C/C=C/1C [Temsirolimus] ; measured relative viability: 0.799

Lookup result for O=C1CCc2c(Oc3ccc4c(c3)[C@@H]3[C@H](O4)[C@H]3c3nc4cc(C(F)(F)F)ccc4[nH]3)ccnc2N1 [Lifirafenib] ; measured relative viability: 1.15

Lookup result for CC(=O)c1c(C)c2cnc(Nc3ccc(N4CCNCC4)cn3)nc2n(C2CCCC2)c1=O [Palbociclib] ; measured relative viability: 1.28

Lookup result for COc1cc(N2CCC(N3CCN(C)CC3)CC2)ccc1Nc1ncc(Cl)c(Nc2ccccc2P(C)(C)=O)n1 [Brigatinib] ; measured relative viability: 1.06

###

# Tested on: KHOS-240S
# assay_comment: relative viability vs DMSO control (72 h) (fraction); higher = more viable cells
# recorded_conditions: 3.333 µM
value_kind: relative viability
// no unit, no text: just the number

Below, each entry is followed by its recorded relative viability result.
{"substance_smiles": "COc1cc2ncnc(Nc3ccc(F)c(Cl)c3)c2cc1OCCCN1CCOCC1", "numeric_result": 0.921}
{"substance_smiles": "COc1cc(Nc2ncc3c(n2)-c2ccc(Cl)cc2C(c2c(F)cccc2OC)=NC3)ccc1C(=O)O", "numeric_result": 0.681}
{"substance_smiles": "CNC(=O)c1cccc2cc(Oc3ccnc4cc(OCC5(N)CC5)c(OC)cc34)ccc12", "numeric_result": 0.771}

With those in mind, consider the next compound.
Lookup result for "Cc1cc(F)c(C(=O)Nc2cccc(-c3nncn3C(C)C)n2)cc1-n1cnc(C2CC2)c1" ; measured relative viability: 0.983

###

# Tested on: SK-ES-1
# assay_comment: relative viability vs DMSO control (72 h) (fraction); higher = more viable cells
# recorded_conditions: 1.111 µM
# if measured relative viability < 0.9: class 1  # else: class 0

Check out these entries, answers already filled in.
{"compound": "COc1cc2ncnc(Nc3ccc(F)c(Cl)c3)c2cc1OCCCN1CCOCC1", "class": "class 1"}
{"compound": "O=C1CCc2c(Oc3ccc4c(c3)[C@@H]3[C@H](O4)[C@H]3c3nc4cc(C(F)(F)F)ccc4[nH]3)ccnc2N1", "class": "class 0"}
{"compound": "CCS(=O)(=O)N1CC(CC#N)(n2cc(-c3ncnc4[nH]ccc34)cn2)C1", "class": "class 0"}
{"compound": "C=CC(=O)N1CCC(CNc2ncnc(N)c2-c2ccc(Oc3ccccc3)cc2)CC1", "class": "class 0"}

Given "CO[C@H]1C[C@@H]2CC[C@@H](C)[C@@](O)(O2)C(=O)C(=O)N2CCCC[C@H]2C(=O)O[C@H]([C@H](C)C[C@@H]2CC[C@@H](OC(=O)C(C)(CO)CO)[C@H](OC)C2)CC(=O)[C@H](C)/C=C(\C)[C@@H](O)[C@@H](OC)C(=O)[C@H](C)C[C@H](C)/C=C/C=C/C=C/1C" , is recorded relative viability strictly lower than 0.9?
class 1

Given O=C(/C=C\n1cnc(-c2cc(C(F)(F)F)cc(C(F)(F)F)c2)n1)NNc1cnccn1 [Selinexor] , is recorded relative viability strictly lower than 0.9?
class 1

###

# Tested on: HS729
# assay_comment: relative viability vs DMSO control (72 h) (fraction); higher = more viable cells
# recorded_conditions: 0.3704 µM
A collection of molecules and their measured relative viability
// no unit, no text: just the number

{"substance_smiles": "CNC(=O)c1c(C)oc2cc(Oc3ncnc4cc(OC)c(OC)cc34)ccc12", "value_kind": "relative viability", "numeric_result": 0.852}
{"substance_smiles": "CC(=O)c1c(C)c2cnc(Nc3ccc(N4CCNCC4)cn3)nc2n(C2CCCC2)c1=O", "value_kind": "relative viability", "numeric_result": 0.984}
{"substance_smiles": "CO[C@H]1C[C@@H]2CC[C@@H](C)[C@@](O)(O2)C(=O)C(=O)N2CCCC[C@H]2C(=O)O[C@H]([C@H](C)C[C@@H]2CC[C@@H](OC(=O)C(C)(CO)CO)[C@H](OC)C2)CC(=O)[C@H](C)/C=C(\\C)[C@@H](O)[C@@H](OC)C(=O)[C@H](C)C[C@H](C)/C=C/C=C/C=C/1C", "value_kind": "relative viability", "numeric_result": 0.758}

With those in mind, consider the next molecule.
Lookup result for "Cc1c2oc3c(C)ccc(C(=O)N[C@@H]4C(=O)N[C@H](C(C)C)C(=O)N5CCC[C@H]5C(=O)N(C)CC(=O)N(C)[C@@H](C(C)C)C(=O)O[C@@H]4C)c3nc-2c(C(=O)N[C@@H]2C(=O)N[C@H](C(C)C)C(=O)N3CCC[C@H]3C(=O)N(C)CC(=O)N(C)[C@@H](C(C)C)C(=O)O[C@@H]2C)c(N)c1=O" ; measured relative viability: 0.119
